procedure text: Induction of free radicals production in RPMI 1640 medium at pH 7.4 by electron spin resonance analysis
Type: physicochemical
property label: Activity

Input line: Any idea what Activity was measured for O=C(O)CCc1ccc(O)c(O)c1 [DIHYDROCAFFEIC ACID] ?
Output line: Active

Input line: Any idea what Activity was measured for O=c1ccc2cc(O)c(O)cc2o1 [ESCULETIN] ?
Output line: Active

Input line: Any idea what Activity was measured for Cc1cc(=O)oc2c(O)c(O)ccc12 [4-METHYLDAPHNETIN] ?
Output line: Active

Input line: Any idea what Activity was measured for O=C(O)/C=C/c1ccc(O)c(O)c1 [CAFFEIC ACID] ?
Output line: Active

Input line: Any idea what Activity was measured for Cc1cc(=O)oc2cc(O)c(O)cc12 [4-METHYLESCULETIN] ?
Output line: Active

Now turn to the next molecule.
Input line: Any idea what Activity was measured for COc1cc2ccc(=O)oc2c(O)c1O [FRAXETIN] ?
Output line: Active

Attribution: ChEMBL document CHEMBL2202983
